target: GOX (glucose oxidase) (Aspergillus niger, UniProt P13006)
Sequence (P13006 23-605 limits assumed): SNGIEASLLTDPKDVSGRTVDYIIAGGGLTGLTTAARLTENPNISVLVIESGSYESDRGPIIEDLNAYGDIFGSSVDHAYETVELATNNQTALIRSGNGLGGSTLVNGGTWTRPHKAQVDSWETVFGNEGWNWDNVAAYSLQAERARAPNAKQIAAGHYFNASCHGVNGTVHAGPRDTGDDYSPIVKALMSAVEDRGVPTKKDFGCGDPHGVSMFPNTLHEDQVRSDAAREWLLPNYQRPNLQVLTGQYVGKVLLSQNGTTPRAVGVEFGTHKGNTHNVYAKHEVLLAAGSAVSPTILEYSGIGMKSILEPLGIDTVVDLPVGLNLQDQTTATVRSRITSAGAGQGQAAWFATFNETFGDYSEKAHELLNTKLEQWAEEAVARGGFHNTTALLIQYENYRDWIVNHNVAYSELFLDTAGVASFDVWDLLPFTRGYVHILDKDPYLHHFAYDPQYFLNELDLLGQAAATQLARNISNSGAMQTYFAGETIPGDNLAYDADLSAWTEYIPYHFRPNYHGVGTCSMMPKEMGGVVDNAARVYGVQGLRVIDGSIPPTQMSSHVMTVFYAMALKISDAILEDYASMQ
outcome measure: pKd
To interpret pKd, take it as minus log10 of a concentration measured in moles per litre.

Given Cl [chloride] , report its pKd on GOX (glucose oxidase) (Aspergillus niger, UniProt P13006).
2.21

###

biological target: reduced MSOX (Bacillus sp., UniProt P40859)
outcome measure: Kd

Given O=O [oxygen] , report its Kd on reduced MSOX (Bacillus sp., UniProt P40859).
≥ 10 mM

###

biological target: MSOX (monomeric sarcosine oxidase) (Bacillus sp., UniProt P40859); experiment: Spectral titration of MSOX; type: binding; conditions: Kd, MSOX + MTA ⇄ MSOX•MTA, plus 667 mM sodium sulfate, 50 mM potassium phosphate buffer, pH 8.0, 25 °C, plus 667 mM sodium sulfate
outcome measure: Kd (µM)
Write the value in µM as a bare number.

Given CSCC(=O)O [MTA, methylthioacetate] , report its Kd on MSOX (monomeric sarcosine oxidase) (Bacillus sp., UniProt P40859).
1840

###

Biological target: MSOX (monomeric sarcosine oxidase) (Bacillus sp., UniProt P40859)
Sequence (P40859 1-390): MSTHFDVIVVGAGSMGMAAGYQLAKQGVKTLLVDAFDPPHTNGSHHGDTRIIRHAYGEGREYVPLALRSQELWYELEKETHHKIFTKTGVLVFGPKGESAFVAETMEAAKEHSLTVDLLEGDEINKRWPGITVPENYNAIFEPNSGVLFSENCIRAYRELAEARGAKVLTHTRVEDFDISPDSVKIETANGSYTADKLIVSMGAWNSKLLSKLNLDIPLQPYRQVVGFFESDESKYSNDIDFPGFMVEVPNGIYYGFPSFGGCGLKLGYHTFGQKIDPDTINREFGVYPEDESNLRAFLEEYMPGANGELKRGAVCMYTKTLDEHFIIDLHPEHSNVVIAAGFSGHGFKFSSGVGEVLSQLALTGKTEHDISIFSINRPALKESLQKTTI
Assay: Spectral titration of MSOX
Type: binding
Conditions: Kd, MSOX•Cl− + MTA ⇄ MSOX•Cl−•MTA, 50 mM potassium phosphate buffer, pH 8.0, containing 2.0 M potassium chloride, 25 °C; absorbance at 528 nm
outcome measure: Kd (mM)
Write the value in mM as a bare number.

Give recorded Kd. CSCC(=O)O [MTA, methylthioacetate]
4.9
